# Study System: Tubulin beta-1 chain (Homo sapiens)
# Protocol Description: Percent inhibition of tubulin polymerization at 0.3 uM concentration
# Type: functional
Endpoint Name: inhibition (%)
# output: bare number, implied unit %

Example entries begin here.
{"columns": ["Chemical String", "Readout Units", "inhibition"],
 "data": [
  ["CN[C@H](C(=O)N[C@H](C(=O)N(C)[C@H](/C=C(\\C)C(=O)O)C(C)C)C(C)(C)C)C1(c2ccccc2)CC1", "%", 99],
  ["CCC(CC)(c1ccccc1)[C@H](NC)C(=O)N[C@H](C(=O)N(C)[C@H](/C=C(\\C)C(=O)O)C(C)C)C(C)(C)C", "%", 86],
  ["CCN(C(=O)[C@@H](NC(=O)[C@@H](NC)C(C)(C)c1ccccc1)C(C)(C)C)[C@H](/C=C(\\C)C(=O)O)C(C)C", "%", 11]
]}

QUERY: I would be grateful if you could share the reported inhibition for C/C(=C\[C@H](C(C)C)N(C)C(=O)[C@@H](NC(=O)[C@@H](C(C)(C)c1ccccc1)S(C)(=O)=O)C(C)(C)C)C(=O)O .
RESULT: 80

---

IC50 values, listed per item
# Protocol Description: Inhibitory concentration against S1 cells was evaluated
# Assay type: functional, cell-based
# output: bare number, implied unit nM

Example entries begin here.
{"columns": ["Compound", "Readout Units", "Measured Value"],
 "data": [
  ["CN[C@H](C(=O)N[C@H](C(=O)N(C)[C@H](/C=C(\\C)C(=O)O)C(C)C)C(C)(C)C)C(C)(C)c1ccc(OC)cc1", "nM", 7.3],
  ["CNC(=O)/C(C)=C/[C@H](C(C)C)N(C)C(=O)[C@@H](NC(=O)[C@@H](NC)C(C)(C)c1ccccc1)C(C)(C)C", "nM", 657],
  ["CN[C@H](C(=O)N[C@H](C(=O)N(C)[C@H](/C=C(\\C)C(=O)O)C(C)C)C(C)(C)C)C(C)(C)c1ccccc1 [TALTOBULIN]", "nM", 3.7]
]}

QUERY: I would be grateful if you could share the reported IC50 for CC(=O)O[C@H]1C(=O)[C@@]2(C)[C@H]([C@H](OC(=O)c3ccccc3)[C@]3(O)C[C@H](OC(=O)[C@H](O)[C@@H](NC(=O)c4ccccc4)c4ccccc4)C(C)=C1C3(C)C)[C@]1(OC(C)=O)CO[C@@H]1C[C@@H]2O [PACLITAXEL] .
RESULT: 92

---

# Study System: Tubulin beta-1 chain (Homo sapiens, UniProt Q9H4B7)
# Sequence (Q9H4B7 whole entry): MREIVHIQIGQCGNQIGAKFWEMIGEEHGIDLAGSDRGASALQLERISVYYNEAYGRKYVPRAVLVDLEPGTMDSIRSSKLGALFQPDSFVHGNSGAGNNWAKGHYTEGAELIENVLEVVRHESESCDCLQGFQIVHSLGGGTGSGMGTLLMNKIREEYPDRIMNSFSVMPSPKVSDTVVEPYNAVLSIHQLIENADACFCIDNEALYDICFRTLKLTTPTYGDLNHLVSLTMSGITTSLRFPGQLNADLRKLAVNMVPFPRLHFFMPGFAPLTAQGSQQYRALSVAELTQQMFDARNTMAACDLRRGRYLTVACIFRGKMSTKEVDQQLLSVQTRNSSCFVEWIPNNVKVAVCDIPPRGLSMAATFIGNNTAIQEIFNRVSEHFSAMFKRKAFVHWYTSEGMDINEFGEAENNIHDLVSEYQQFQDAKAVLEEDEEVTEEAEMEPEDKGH
# Protocol Description: Percent inhibition of tubulin polymerization at 0.3 uM concentration
# Type: functional
inhibition values, listed per item
# output: bare number, implied unit %

{"columns": ["Chemical String", "Study System", "Readout Units", "inhibition"],
 "data": [
  ["CNC(=O)/C(C)=C/[C@H](C(C)C)N(C)C(=O)[C@@H](NC(=O)[C@@H](NC)C(C)(C)c1ccccc1)C(C)(C)C", "Tubulin beta-1 chain (Homo sapiens, UniProt Q9H4B7)", "%", 78],
  ["CN[C@H](C(=O)N[C@@H](Cc1ccccc1)C(=O)N(C)[C@H](/C=C(\\C)C(=O)O)C(C)C)C(C)(C)c1ccccc1", "Tubulin beta-1 chain (Homo sapiens, UniProt Q9H4B7)", "%", 40],
  ["CN[C@H](C(=O)N[C@H](C(=O)N(C)[C@H](C[C@@H](C)C(=O)O)C(C)C)C(C)(C)C)C(C)(C)c1ccccc1", "Tubulin beta-1 chain (Homo sapiens, UniProt Q9H4B7)", "%", 99],
  ["CN[C@H](C(=O)N[C@@H](C)C(=O)N(C)[C@H](/C=C(\\C)C(=O)O)C(C)C)C(C)(C)c1ccccc1", "Tubulin beta-1 chain (Homo sapiens, UniProt Q9H4B7)", "%", 8],
  ["CCOC(=O)/C(C)=C/[C@H](C(C)C)N(C)C(=O)[C@@H](NC(=O)[C@@H](NC)C(C)(C)c1ccccc1)C(C)(C)C", "Tubulin beta-1 chain (Homo sapiens, UniProt Q9H4B7)", "%", 97]
]}

QUERY: I would be grateful if you could share the reported inhibition for CC[C@@H](C(=O)N[C@H](C(=O)N(C)[C@H](/C=C(\C)C(=O)O)C(C)C)C(C)(C)C)C(C)(C)c1ccccc1 .
RESULT: 54

QUERY: Now try CCCCCCCCOC(=O)/C(C)=C/[C@H](C(C)C)N(C)C(=O)[C@@H](NC(=O)[C@@H](NC)C(C)(C)c1ccccc1)C(C)(C)C .
RESULT: 26

---

# Test system: HCT-15
# Protocol Description: Inhibitory concentration against HCT-15 cells was evaluated
# Type: functional, cell-based
# Cond: Homo sapiens
pIC50: −log10 of the molar value.
Quick rule for you: pIC50 at 7 or higher means 1, lower means -1.

{"columns": ["Molecule", "Assigned Category"],
 "data": [
  ["CC(=O)O[C@H]1C(=O)[C@@]2(C)[C@H]([C@H](OC(=O)c3ccccc3)[C@]3(O)C[C@H](OC(=O)[C@H](O)[C@@H](NC(=O)c4ccccc4)c4ccccc4)C(C)=C1C3(C)C)[C@]1(OC(C)=O)CO[C@@H]1C[C@@H]2O [PACLITAXEL]", -1],
  ["CC/C(=C\\[C@H](C(C)C)N(C)C(=O)[C@@H](NC(=O)[C@@H](NC)C(C)(C)c1ccccc1)C(C)(C)C)C(=O)O", 1],
  ["CN[C@H](C(=O)N[C@H](C(=O)N(C)[C@H](/C=C(\\C)C(=O)O)C(C)C)C(C)(C)C)C(C)(C)c1ccccc1 [TALTOBULIN]", 1],
  ["CN[C@H](C(=O)N[C@H](C(=O)N(C)[C@H](/C=C(\\C)C(=O)O)C(C)C)C(C)(C)C)C(C)(C)c1ccc(OC)cc1", 1]
]}

QUERY: Determine whether measured pIC50 meets or exceeds 7 for CN[C@H](C(=O)N[C@H](C(=O)N(C)[C@H](/C=C(\C)C(=O)O)C(C)C)C(C)(C)SC)C(C)(C)c1ccccc1
RESULT: 1

QUERY: Now try CN[C@H](C(=O)N[C@H](C(=O)N[C@H](/C=C(\C)C(=O)O)C(C)C)C(C)(C)C)C(C)(C)c1ccccc1 .
RESULT: -1

---

inhibition values, listed per item
# Study System: Tubulin beta-1 chain (Homo sapiens, UniProt Q9H4B7)
# Protocol Description: Percent inhibition of tubulin polymerization at 0.3 uM concentration
# Format: functional
# output: bare number, implied unit %

{"columns": ["Compound", "Endpoint Name", "Measured Value"],
 "data": [
  ["CN[C@H](C(=O)N[C@H](C(=O)N(C)[C@H](/C=C(\\C)C(=O)O)C(C)C)C(C)(C)C)C(C)(C)c1ccc(OC)cc1", "inhibition", 91],
  ["CN[C@H](C(=O)N[C@H](C(=O)N(C)[C@H](C[C@H](C)C(=O)O)C(C)C)C(C)(C)C)C(C)(C)c1ccccc1", "inhibition", 74],
  ["CC[C@H](NC(=O)[C@@H](NC)C(C)(C)c1ccccc1)C(=O)N(C)[C@H](/C=C(\\C)C(=O)O)C(C)C", "inhibition", 73],
  ["C/C(=C\\[C@H](C(C)C)N(C)C(=O)[C@@H](NC(=O)[C@@H](N)C(C)(C)c1ccccc1)C(C)(C)C)C(=O)O (stereo in doubt; 20)", "inhibition", 95]
]}

QUERY: I would be grateful if you could share the reported inhibition for C/C(=C\[C@H](C(C)C)N(C)C(=O)[C@@H](NC(=O)[C@@H](O)C(C)(C)c1ccccc1)C(C)(C)C)C(=O)O .
RESULT: 21

QUERY: Now try CC/C(=C\[C@H](C(C)C)N(C)C(=O)[C@@H](NC(=O)[C@@H](NC)C(C)(C)c1ccccc1)C(C)(C)C)C(=O)O .
RESULT: 83

QUERY: Now try CN[C@H](C(=O)N[C@H](C(=O)N(C)[C@H](/C=C(\C)C(=O)NCc1ccc(-c2ccccc2)cc1)C(C)C)C(C)(C)C)C(C)(C)c1ccccc1 .
RESULT: 11

QUERY: Now try CN[C@H](C(=O)N[C@H](C(=O)N(C)[C@H](/C=C(\C)C(=O)NCCc1ccccc1)C(C)C)C(C)(C)C)C(C)(C)c1ccccc1 .
RESULT: 72

QUERY: Now try CN[C@H](C(=O)N[C@H](C(=O)N(C)[C@H](/C=C(\C)C(=O)O)C(C)C)C(C)(C)C)C(C)(C)c1ccc(-c2ccccc2)cc1 .
RESULT: 86

---

# Study System: Tubulin beta-1 chain (Homo sapiens)
# Protocol Description: Binding affinity towards tubulin
pKd values, listed per item
Answer as the number alone; pKd is minus log10 of concentration in mol/L.

Example entries begin here.
{"columns": ["Chemical String", "pKd"],
 "data": [
  ["CN[C@H](C(=O)N[C@H](C(=O)N(C)[C@H](/C=C(\\C)C(=O)O)C(C)C)C(C)(C)C)C(C)(C)C1CCCCC1", 5.92],
  ["CN[C@H](C(=O)N[C@H](C(=O)N(C)[C@H](C[C@@H](C)C(=O)O)C(C)C)C(C)(C)C)C(C)(C)c1ccccc1", 5.40],
  ["C/C(=C\\[C@H](C(C)C)N(C)C(=O)[C@@H](NC(=O)[C@@H](N(C)CCO)C(C)(C)c1ccccc1)C(C)(C)C)C(=O)O", 6.00]
]}

Now consider the entry below.
QUERY: I would be grateful if you could share the reported pKd for CCOC(=O)/C(C)=C/[C@H](C(C)C)N(C)C(=O)[C@@H](NC(=O)[C@@H](NC)C(C)(C)c1ccccc1)C(C)(C)C .
RESULT: 5.40
